Data credit: patent US7196110B2

- system: PDGF-receptor beta enzyme comprising the tyrosine kinase domain (Homo sapiens, UniProt P09619)
- Construct: from amino acid 545 to 1106 of GenBank Access NO: AAA36427
- Sequence (P09619 545-1106): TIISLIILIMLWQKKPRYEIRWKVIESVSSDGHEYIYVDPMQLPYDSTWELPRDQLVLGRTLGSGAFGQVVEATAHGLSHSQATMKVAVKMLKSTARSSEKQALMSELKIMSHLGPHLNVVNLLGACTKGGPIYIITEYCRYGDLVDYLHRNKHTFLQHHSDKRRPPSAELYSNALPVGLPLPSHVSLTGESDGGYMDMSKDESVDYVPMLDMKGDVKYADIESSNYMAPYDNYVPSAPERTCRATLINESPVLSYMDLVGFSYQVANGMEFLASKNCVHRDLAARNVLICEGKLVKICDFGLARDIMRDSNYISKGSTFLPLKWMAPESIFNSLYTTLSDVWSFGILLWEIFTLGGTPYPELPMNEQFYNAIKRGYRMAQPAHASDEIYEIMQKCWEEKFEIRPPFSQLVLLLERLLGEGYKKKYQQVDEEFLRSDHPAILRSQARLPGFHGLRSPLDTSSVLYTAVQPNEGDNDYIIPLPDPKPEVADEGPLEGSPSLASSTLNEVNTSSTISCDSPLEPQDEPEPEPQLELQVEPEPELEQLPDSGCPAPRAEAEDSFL
- assay_protocol: Inhibition of PDGF-receptor kinase activity (cell-free, PLC1 peptide, 33P Flashplate)
- Format: biochemical
- conditions: PDGF-R kinase activity; compound at 10 uM; read-out: Percent Inhibition @ 10 uM
- Experimental: PDGF-R kinase activity was assayed by its ability to phosphorylate one of its target proteins, PLCγ, in a cell-free system, in particular, a PLC1 peptide comprising the tyrosine residue where the phosphorylation occurs was used for the assay. […] In order to test the potency of inhibition of present compounds, an IC50 for an individual compound was measured using the above procedure. […]
# label = Y if inhibition at 10 µM >= 90% else N

Use these answered entries as a reference point.
molecule	group
COc1cc2c(cc1OC)-c1n[nH]c(Nc3ccc(Br)cc3C(F)(F)F)c1C2	N
COc1cc2c(cc1OC)-c1n[nH]c(Nc3ccc(C#N)cc3)c1C2	N
FC(F)(F)c1cccc(Nc2[nH]nc3c2Cc2cc(Br)ccc2-3)c1	N
COc1cc2c(cc1Br)Cc1c-2n[nH]c1Nc1cccc(F)c1	Y
COc1ccc(Nc2[nH]nc3c2C(C)c2ccccc2-3)c(OC)c1 (stereo not drawn)	Y
CCC1c2cc(OC)c(OC)cc2-c2n[nH]c(Nc3cccc(Br)c3)c21 (single isomer, unassigned) [Compound 555]	Y
COc1cc2c(cc1OCc1ccccc1)Cc1c-2n[nH]c1Nc1cccc(F)c1	Y
Cc1ccccc1CNc1[nH]nc2c1Cc1c(OCCCO)cccc1-2	Y
CCOc1cc2c(cc1OCC)C(C)c1c-2n[nH]c1Nc1cccc(OC)c1 (stereo not drawn)	Y
COc1ccc2c(c1)-c1n[nH]c(Nc3ccc(OC(F)(F)F)cc3)c1C2	N

Is inhibition at 10 µM for `COc1cc2c(cc1OC)-c1n[nH]c(NCc3c(F)cccc3F)c1C2` at or above 90%?
N

Is inhibition at 10 µM for COc1cc2c(cc1OCC(O)CN1CCCC1)Cc1c-2n[nH]c1NCc1c(F)cccc1F (stereo not drawn) at or above 90%?
Y

Is inhibition at 10 µM for `COc1cc2c(cc1OC)-c1n[nH]c(N3CCc4ccccc43)c1C2` at or above 90%?
N

Is inhibition at 10 µM for `COCCCOc1ccc2c(c1)Cc1c-2n[nH]c1Nc1ccccc1` at or above 90%?
N

Is inhibition at 10 µM for `Fc1ccccc1CNc1[nH]nc2c1Cc1c(OCCCN3CCOCC3)cccc1-2` at or above 90%?
N

Is inhibition at 10 µM for `Cc1ccc2c(c1)-c1n[nH]c(NCc3ccc(F)c(F)c3)c1C2` at or above 90%?
N
